B1: HDV Ribozyme (parent)
chain: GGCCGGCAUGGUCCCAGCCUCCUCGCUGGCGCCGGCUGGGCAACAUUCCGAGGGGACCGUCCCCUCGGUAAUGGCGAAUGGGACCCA

Variants of: B1
Test: self-cleavage, relative activity (ratio to wild type); higher = more cleavage; co-transcriptional
Class true (1): self-cleavage at least 0.2. Class false (0): self-cleavage below 0.2.

>>> group_label("G25U A42G")
"false (0)"
>>> group_label("U27C A77G")
"true (1)"
>>> group_label("C63G G68C")
"true (1)"
>>> group_label("C24A C30A")
"true (1)"
>>> group_label("G50U U69C")
"true (1)"
>>> group_label("G59U G76C")
"true (1)"
>>> group_label("C3A C18A")
"false (0)"
>>> group_label("A42C C84U")
"true (1)"
>>> group_label("G25C C48G")
"false (0)"
>>> group_label("G28U C58U")
"false (0)"
>>> group_label("C4G C7G")
"false (0)"
